# credit: patent US20250250357A1

Readings of OD450 at 0.001 nM for the listed binders
target: T1, human MSLN-FL-his protein (human, UniProt Q13421 296-580); assay: ELISA, coated MSLN full-length;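 note: binding of chimeric antibodies to plate-bound antigen, read by TMB colour after acid stop, antibody incubated 2 h at 37 °C, negative control antibody run alongside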
T1 construct: also called human MSLN full-length protein; hMSLN-FL-his; not shown: His tag
T1 sequence (Q13421 other isoform, or with tags, fused parts or gaps): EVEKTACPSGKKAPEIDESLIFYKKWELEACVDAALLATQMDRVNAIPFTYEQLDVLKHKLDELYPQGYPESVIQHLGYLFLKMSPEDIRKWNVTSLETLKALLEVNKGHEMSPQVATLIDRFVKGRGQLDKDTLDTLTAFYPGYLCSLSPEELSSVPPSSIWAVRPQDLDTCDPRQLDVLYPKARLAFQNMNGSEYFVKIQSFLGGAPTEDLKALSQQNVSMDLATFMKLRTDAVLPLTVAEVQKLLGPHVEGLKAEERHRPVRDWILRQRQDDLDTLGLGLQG
Enter your answer as a number in OD450; do not include the unit.

[[record]]
binder = "S009-F2-56.12 (antibody, human IgG1, kappa, V domains shown, Human-murine chimeric antibody, human IgG1/kappa constant regions) VH: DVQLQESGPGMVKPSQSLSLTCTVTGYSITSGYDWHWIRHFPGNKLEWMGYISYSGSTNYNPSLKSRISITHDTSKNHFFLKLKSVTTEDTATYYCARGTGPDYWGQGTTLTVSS VL: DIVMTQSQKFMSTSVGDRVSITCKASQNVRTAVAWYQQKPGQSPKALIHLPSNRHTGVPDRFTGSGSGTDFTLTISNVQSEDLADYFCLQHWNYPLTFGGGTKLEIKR"
property = "OD450 at 0.001 nM"
measurement_unit = "OD450"
value_reported = 0.07

[[record]]
binder = "S009-F2.47.1 (antibody, human IgG1, kappa, V domains shown, Human-murine chimeric antibody, human IgG1/kappa constant regions) VH: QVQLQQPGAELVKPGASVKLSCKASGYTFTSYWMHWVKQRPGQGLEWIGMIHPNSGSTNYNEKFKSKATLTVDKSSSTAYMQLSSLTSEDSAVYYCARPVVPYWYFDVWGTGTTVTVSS VL: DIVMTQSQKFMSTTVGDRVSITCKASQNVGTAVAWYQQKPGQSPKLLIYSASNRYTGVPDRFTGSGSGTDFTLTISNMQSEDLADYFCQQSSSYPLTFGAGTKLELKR"
property = "OD450 at 0.001 nM"
measurement_unit = "OD450"
value_reported = 0.1


Now, please, on to the next binder.
Input S009-F2.23.12 (antibody, human IgG1, kappa, V domains shown, Human-murine chimeric antibody, human IgG1/kappa constant regions) VH: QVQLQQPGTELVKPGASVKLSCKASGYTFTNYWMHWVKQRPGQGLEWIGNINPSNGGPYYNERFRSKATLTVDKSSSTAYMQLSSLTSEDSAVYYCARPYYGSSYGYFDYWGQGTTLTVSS VL: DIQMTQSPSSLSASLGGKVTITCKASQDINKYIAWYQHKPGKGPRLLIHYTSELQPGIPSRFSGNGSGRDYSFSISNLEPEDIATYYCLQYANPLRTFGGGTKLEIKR . Output OD450 at 0.001 nM: 0.06
